System: DU-145 prostate
ASSAY METHOD TEXT: NCI-60 one-dose screen, 48 h (100 = growth as untreated, 0 = no growth, -100 = all killed)
ASSAY SETUP: 10 µM
Compounds without any hit were thinned out: in the full panel of roughly 83,000, 20% have a hit.
# reported growth; entries follow

- ENTRY SMILES: "O=C(Nc1cccc(NC(=O)Nc2cc(C(F)(F)F)ccc2Cl)c1)Nc1cc(C(F)(F)F)ccc1Cl"
  UOM: "%"
  growth: 30.8
- ENTRY SMILES: "CCOC(=O)c1ccc(NC(=S)P(=O)(c2ccccc2)c2ccccc2)cc1"
  UOM: "%"
  growth: 113
- ENTRY SMILES: "CCCCNC(=O)C(=O)NCCCC"
  UOM: "%"
  growth: 103
- ENTRY SMILES: "COc1ccc2c(c1)CCc1c-2n[nH]c1-c1[nH]nc2c1CCc1cc(OC)ccc1-2"
  UOM: "%"
  growth: 86.2
- ENTRY SMILES: "O=c1[nH][nH]c(=O)c2cc([N+](=O)[O-])ccc12"
  UOM: "%"
  growth: 126

* * *

System: K-562 leukemia
ASSAY METHOD TEXT: NCI-60 one-dose screen, 48 h (100 = growth as untreated, 0 = no growth, -100 = all killed)
ASSAY SETUP: 10 µM
This is part of a sample that, as a whole, favours compounds with a hit. Of some 83,000 tested, about 20% had one in any assay.

- COMPOUND: "O=[N+]([O-])c1ccc(-c2noc(-c3cccs3)n2)cc1"
  growth (%): 93.7
- COMPOUND: "OCCN1CCOCC1"
  growth (%): 114
- COMPOUND: "Oc1ccc(O)cc1"
  growth (%): 98.1
- COMPOUND: "CC(=O)OCCC(C)CCC=C(C)C (stereo not given)"
  growth (%): 98.5
- COMPOUND: "CCO/C=C1\\SC(=S)N(c2cccc(C)c2)C1=O"
  growth (%): 99.5
- COMPOUND: "COc1ccc(C2OC(N)=C(O)C2=O)cc1OC (stereo not given)"
  growth (%): 94.6
- COMPOUND: "O=C(Nc1ccccc1)OCCc1ccccc1"
  growth (%): 114
- COMPOUND: "C#CC(C)(O)c1ccc(Cl)cc1 (stereo not given)"
  growth (%): 91.3
- COMPOUND: "NNc1ccccc1C(=O)O"
  growth (%): 108
- COMPOUND: "C1CNC(C2=NCCN2)=N1"
  growth (%): 90.4
- COMPOUND: "CC(C)=NNC(N)=S"
  growth (%): 48.2
- COMPOUND: "Oc1ccc(Cc2ccccc2)c2cccnc12"
  growth (%): 13.3
- COMPOUND: "Cc1cc(C)c(N)c(S(=O)(=O)O)c1"
  growth (%): 113
- COMPOUND: "CCCCCCCCOC(=O)c1ccccn1"
  growth (%): 115
- COMPOUND: "CC(=O)NCc1cc(C)c(C)cc1C"
  growth (%): 94.2

* * *

Tested on: OVCAR-4 ovarian
ASSAY METHOD TEXT: NCI-60 one-dose screen, 48 h (100 = growth as untreated, 0 = no growth, -100 = all killed)
ASSAY SETUP: 10 µM
This is part of a sample that, as a whole, favours compounds with a hit. Of some 83,000 tested, about 20% had one in any assay.
Each entry below carries its reported growth.

- COMPOUND: "CC(C(=O)O)(C1CCCCC1)C1(O)CCCCC1 (stereo unspecified)"
  TARGET OR TEST SYSTEM: "OVCAR-4 ovarian"
  growth [%]: 108
- COMPOUND: "Clc1ccc(-c2n[nH]c3c2Cc2ccccc2-3)cc1Cl"
  TARGET OR TEST SYSTEM: "OVCAR-4 ovarian"
  growth [%]: 99.9
- COMPOUND: "COC(=O)C(C)Oc1ccc(OC#N)cc1 (stereo unspecified)"
  TARGET OR TEST SYSTEM: "OVCAR-4 ovarian"
  growth [%]: 95.8
- COMPOUND: "O=c1[nH]c(O)c(/C=C2/C=Nc3ccccc32)[nH]1"
  TARGET OR TEST SYSTEM: "OVCAR-4 ovarian"
  growth [%]: 90
- COMPOUND: "COC(=O)c1ccc(C(C)C)cc1"
  TARGET OR TEST SYSTEM: "OVCAR-4 ovarian"
  growth [%]: 103
- COMPOUND: "Nc1ccc(N=Nc2ccc(O)cc2)c(N)n1"
  TARGET OR TEST SYSTEM: "OVCAR-4 ovarian"
  growth [%]: 59.2
- COMPOUND: "COc1ccccc1N1CCN(C(=S)Nc2ccccc2)CC1"
  TARGET OR TEST SYSTEM: "OVCAR-4 ovarian"
  growth [%]: 108
- COMPOUND: "O=C(O)COCC(=O)O"
  TARGET OR TEST SYSTEM: "OVCAR-4 ovarian"
  growth [%]: 88.6
- COMPOUND: "CC(=O)Cc1cc(-c2cc(CC(C)=O)[nH]n2)n[nH]1"
  TARGET OR TEST SYSTEM: "OVCAR-4 ovarian"
  growth [%]: 101
- COMPOUND: "O=C1NC(=O)C2C(=O)NC(=O)C1C21CCc2ccccc21 (stereo unspecified)"
  TARGET OR TEST SYSTEM: "OVCAR-4 ovarian"
  growth [%]: 105
- COMPOUND: "CO[C@H]1C[C@@H]2CC[C@@H](C)[C@@](O)(O2)C(=O)C(=O)N2CCCC[C@H]2C(=O)O[C@H]([C@H](C)C[C@@H]2CC[C@@H](O)[C@H](OC)C2)CC(=O)[C@H](C)C=C(C)[C@@H](O)[C@@H](OC)C(=O)[C@H](C)C[C@H](C)/C=C/C=C/C=C1C"
  TARGET OR TEST SYSTEM: "OVCAR-4 ovarian"
  growth [%]: 33.3
- COMPOUND: "O=S(=O)(O)c1ccc(Cl)c(Cl)c1"
  TARGET OR TEST SYSTEM: "OVCAR-4 ovarian"
  growth [%]: 106
- COMPOUND: "S=C(Nc1ccccc1)N1CCCCC1"
  TARGET OR TEST SYSTEM: "OVCAR-4 ovarian"
  growth [%]: 111
- COMPOUND: "O=C(N/N=C/c1ccccc1O)Nc1nn[nH]n1"
  TARGET OR TEST SYSTEM: "OVCAR-4 ovarian"
  growth [%]: 102
- COMPOUND: "O=C(O)CSCSCC(=O)O"
  TARGET OR TEST SYSTEM: "OVCAR-4 ovarian"
  growth [%]: 99.6
- COMPOUND: "O=P(O)(O)OCC(O)CO (stereo unspecified)"
  TARGET OR TEST SYSTEM: "OVCAR-4 ovarian"
  growth [%]: 88.3
- COMPOUND: "C=CCOC(=O)C(=O)OCC=C"
  TARGET OR TEST SYSTEM: "OVCAR-4 ovarian"
  growth [%]: 110
- COMPOUND: "COc1ccc(C)cc1OC"
  TARGET OR TEST SYSTEM: "OVCAR-4 ovarian"
  growth [%]: 104
- COMPOUND: "COCCOCCCl"
  TARGET OR TEST SYSTEM: "OVCAR-4 ovarian"
  growth [%]: 105
- COMPOUND: "NC(N)=Nc1cc2ccccc2c2ccccc12"
  TARGET OR TEST SYSTEM: "OVCAR-4 ovarian"
  growth [%]: 74.4
- COMPOUND: "CC1(c2ccccc2)NC(=O)NC1=O (stereo unspecified)"
  TARGET OR TEST SYSTEM: "OVCAR-4 ovarian"
  growth [%]: 115
- COMPOUND: "Cc1nc2ccccc2c2nnc(SCC(=O)N(Cc3ccccc3)c3ccccc3)n12"
  TARGET OR TEST SYSTEM: "OVCAR-4 ovarian"
  growth [%]: 91.7
- COMPOUND: "O=[N+]([O-])c1ccc(Cl)c(S(=O)(=O)O)c1"
  TARGET OR TEST SYSTEM: "OVCAR-4 ovarian"
  growth [%]: 111
- COMPOUND: "N#CSc1cc(S(N)(=O)=O)ccc1N"
  TARGET OR TEST SYSTEM: "OVCAR-4 ovarian"
  growth [%]: 108
- COMPOUND: "Cc1cc(=O)cc(C)n1-c1ccccc1"
  TARGET OR TEST SYSTEM: "OVCAR-4 ovarian"
  growth [%]: 100
- COMPOUND: "CC(=O)c1ccc(C(C)(C)C)cc1"
  TARGET OR TEST SYSTEM: "OVCAR-4 ovarian"
  growth [%]: 93.5
